Measured values drawn from patent US20230078764A1 for this set.

Target: human SCD5 (Homo sapiens, UniProt Q86SK9)
Construct: expressed in transfected cells; host or cells: yeast strain with OLE1 deleted, plasmid-borne human SCD5 (selected in SD-Ura)
Experiment: Growth inhibition of yeast strain expressing human SCD5 as sole desaturase (OLE1 deleted), OD600 readout
Type: cell-based
Conditions: yeast strain expressing human SCD5 as sole desaturase; growth (OD600) after 40 h at 30° C.; read-out: SCD5 IC50
Could you please report measured IC50 for the items listed next?

I am curious: what IC50 value has been reported for `C#Cn1nc(C(=O)Nc2ccc(Cc3cccc(Cl)c3)cn2)ccc1=O` ?
5300 nM

I am curious: what IC50 value has been reported for `O=C(Nc1ccc(Cc2cccc(F)c2)cn1)c1ncc(F)cn1` ?
260 nM

I am curious: what IC50 value has been reported for `CN1N=C(NC(=O)c2ccc(Cc3ccc(F)c(F)c3)cn2)CCC1=O` ?
280 nM

I am curious: what IC50 value has been reported for `Cn1nc(C(=O)Nc2cc(Cc3ccc(Cl)cc3)ccn2)ccc1=O` ?
16300 nM

I am curious: what IC50 value has been reported for `CN1N=C(C(=O)Nc2ncc(Cc3ccc(F)cc3)s2)CCC1=O` ?
50 nM

I am curious: what IC50 value has been reported for `Cn1ccc(C(=O)Nc2ccc(Cc3cc(F)cc(F)c3)cn2)cc1=O` ?
10 nM

I am curious: what IC50 value has been reported for `Cn1nc(C(=O)Nc2ccc(Cc3cc(F)c(F)c(F)c3)cn2)ccc1=O` ?
10 nM

I am curious: what IC50 value has been reported for CN1N=C(C(=O)Nc2ccc(Cc3ccc(F)c(Cl)c3)nn2)CCC1=O [Compound 179] ?
1030 nM

I am curious: what IC50 value has been reported for `CCn1cc(C(=O)Nc2ccc(Cc3ccc(F)cc3)nn2)ccc1=O` ?
> 45000 nM

###

Could you please report measured pIC50 for the items listed next?
Target: human SCD5 (Homo sapiens, UniProt Q86SK9)
Construct: expressed in transfected cells; host or cells: yeast strain with OLE1 deleted, plasmid-borne human SCD5 (selected in SD-Ura)
Sequence (Q86SK9 1-330): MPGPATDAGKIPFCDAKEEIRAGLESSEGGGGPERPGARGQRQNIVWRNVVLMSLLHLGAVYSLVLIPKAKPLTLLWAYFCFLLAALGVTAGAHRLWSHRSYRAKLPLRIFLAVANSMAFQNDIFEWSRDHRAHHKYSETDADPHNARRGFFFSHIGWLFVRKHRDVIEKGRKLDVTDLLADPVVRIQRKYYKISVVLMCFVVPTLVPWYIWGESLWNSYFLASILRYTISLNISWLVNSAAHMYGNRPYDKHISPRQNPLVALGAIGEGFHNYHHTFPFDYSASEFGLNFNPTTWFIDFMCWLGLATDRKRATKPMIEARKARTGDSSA
Experiment: Growth inhibition of yeast strain expressing human SCD5 as sole desaturase (OLE1 deleted), OD600 readout
Type: cell-based
Details: yeast strain expressing human SCD5 as sole desaturase; growth (OD600) after 40 h at 30° C.; read-out: SCD5 IC50
Value format note: pIC50 is -log10 of concentration (mol/L); just state the number.

I am curious: what pIC50 value has been reported for `Cn1cc(C(=O)Nc2ccc(Cc3cc(F)cc(F)c3)cn2)n(C)c1=O` ?
8.00

I am curious: what pIC50 value has been reported for `Cn1nc(C(=O)Nc2ccc(Cc3cncc(Cl)c3)cn2)ccc1=O` ?
5.52

I am curious: what pIC50 value has been reported for `Cn1cc(NC(=O)c2ccc(COc3ccccc3)cn2)ccc1=O` ?
5.92

I am curious: what pIC50 value has been reported for `O=C(Nc1ccc(Cc2ccc(F)c(F)c2)cn1)c1ccc2nncn2c1` ?
7.40

I am curious: what pIC50 value has been reported for `O=C(Nc1ccc(Nc2cccc(F)c2)cn1)c1ccc(=O)n(C2CC2)n1` ?
5.57

I am curious: what pIC50 value has been reported for `Cn1nc(CO)cc1C(=O)Nc1ccc(Cc2cccc(F)c2)cn1` ?
8.00

I am curious: what pIC50 value has been reported for `CN1N=C(C(=O)Nc2ncc(N(C)c3cccc(F)c3)s2)CCC1=O` ?
5.49

I am curious: what pIC50 value has been reported for `Cn1nc(C(=O)Nc2nnc(Cc3cccc(F)c3)s2)ccc1=O` ?
5.60

I am curious: what pIC50 value has been reported for `Cc1ccc(C(=O)Nc2ccc(Cc3cccc(F)c3)cn2)nn1` ?
7.00

I am curious: what pIC50 value has been reported for `N#Cc1ccc(C(=O)Nc2ccc(Cc3ccc(F)c(C#N)c3)cn2)nc1` ?
6.70

I am curious: what pIC50 value has been reported for `N#Cc1cc(C(=O)Nc2ccc(Cc3cc(F)cc(F)c3)cn2)cnc1C#N` ?
5.92

I am curious: what pIC50 value has been reported for `O=C(Nc1ccc(Cc2cccc(F)c2)cn1)c1ccc(=O)n(C2CC2)c1` ?
6.74

I am curious: what pIC50 value has been reported for `CCn1cc(C(=O)Nc2ccc(Oc3cccc(Cl)c3)cn2)ccc1=O` ?
5.48

I am curious: what pIC50 value has been reported for `CN1N=C(C(=O)Nc2ccc(Cc3cc(Cl)cc(Cl)c3)cn2)CCC1=O` ?
7.30

I am curious: what pIC50 value has been reported for `O=C(Nc1ccc(Cc2cccc(F)c2)cn1)c1ccc(=O)n(C(F)F)c1` ?
6.85

I am curious: what pIC50 value has been reported for `Cc1cc(C(=O)Nc2ccc(Cc3cc(F)cc(C#N)c3)cn2)nn(C)c1=O` ?
6.55
